- SYSTEM UNDER TEST: KDM4B (Homo sapiens, UniProt O94953)
- Sequence (O94953 1-1096): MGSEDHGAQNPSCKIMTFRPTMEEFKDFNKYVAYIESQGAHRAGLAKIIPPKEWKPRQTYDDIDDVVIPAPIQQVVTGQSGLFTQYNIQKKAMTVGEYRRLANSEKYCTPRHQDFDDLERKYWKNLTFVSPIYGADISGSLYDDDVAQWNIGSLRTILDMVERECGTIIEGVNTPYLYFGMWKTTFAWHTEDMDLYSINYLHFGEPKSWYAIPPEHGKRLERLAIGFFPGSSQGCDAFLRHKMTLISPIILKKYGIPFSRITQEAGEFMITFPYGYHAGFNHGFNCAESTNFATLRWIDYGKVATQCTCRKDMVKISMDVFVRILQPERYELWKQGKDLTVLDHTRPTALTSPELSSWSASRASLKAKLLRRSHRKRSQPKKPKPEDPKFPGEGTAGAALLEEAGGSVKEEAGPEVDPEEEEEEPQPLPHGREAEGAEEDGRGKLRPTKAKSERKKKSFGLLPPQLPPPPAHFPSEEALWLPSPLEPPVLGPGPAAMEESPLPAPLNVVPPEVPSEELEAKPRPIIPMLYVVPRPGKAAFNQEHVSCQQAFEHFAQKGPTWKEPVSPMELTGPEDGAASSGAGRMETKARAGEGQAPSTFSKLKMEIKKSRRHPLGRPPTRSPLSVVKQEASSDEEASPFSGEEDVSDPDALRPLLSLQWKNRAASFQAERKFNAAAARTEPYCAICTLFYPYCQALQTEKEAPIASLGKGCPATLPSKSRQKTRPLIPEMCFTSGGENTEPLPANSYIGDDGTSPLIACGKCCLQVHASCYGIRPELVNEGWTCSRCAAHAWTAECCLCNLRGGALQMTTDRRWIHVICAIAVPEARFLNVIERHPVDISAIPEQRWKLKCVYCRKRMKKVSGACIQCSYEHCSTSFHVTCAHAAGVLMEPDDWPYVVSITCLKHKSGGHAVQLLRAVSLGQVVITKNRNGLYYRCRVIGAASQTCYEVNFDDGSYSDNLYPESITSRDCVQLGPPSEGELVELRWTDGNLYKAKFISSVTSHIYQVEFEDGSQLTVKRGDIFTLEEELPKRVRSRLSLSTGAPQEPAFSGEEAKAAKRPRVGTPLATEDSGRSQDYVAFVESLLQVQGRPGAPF

COMPOUND	SYSTEM UNDER TEST	IC50 / nM
O=c1c(O)c(-c2cc(O)c(O)c(O)c2)oc2cc(O)cc(O)c12 [Myricetin]	KDM4B (Homo sapiens, UniProt O94953)	1300
